src = patent US9937115B2

- assayedSystem: TRPA1 receptor (Homo sapiens, UniProt O75762);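 for TRPA1 Pre-incubation: values above 100 mean more active than the control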
- Construct: expressed in transfected cells; host or cells: HEK cell line
- Sequence (O75762 whole entry): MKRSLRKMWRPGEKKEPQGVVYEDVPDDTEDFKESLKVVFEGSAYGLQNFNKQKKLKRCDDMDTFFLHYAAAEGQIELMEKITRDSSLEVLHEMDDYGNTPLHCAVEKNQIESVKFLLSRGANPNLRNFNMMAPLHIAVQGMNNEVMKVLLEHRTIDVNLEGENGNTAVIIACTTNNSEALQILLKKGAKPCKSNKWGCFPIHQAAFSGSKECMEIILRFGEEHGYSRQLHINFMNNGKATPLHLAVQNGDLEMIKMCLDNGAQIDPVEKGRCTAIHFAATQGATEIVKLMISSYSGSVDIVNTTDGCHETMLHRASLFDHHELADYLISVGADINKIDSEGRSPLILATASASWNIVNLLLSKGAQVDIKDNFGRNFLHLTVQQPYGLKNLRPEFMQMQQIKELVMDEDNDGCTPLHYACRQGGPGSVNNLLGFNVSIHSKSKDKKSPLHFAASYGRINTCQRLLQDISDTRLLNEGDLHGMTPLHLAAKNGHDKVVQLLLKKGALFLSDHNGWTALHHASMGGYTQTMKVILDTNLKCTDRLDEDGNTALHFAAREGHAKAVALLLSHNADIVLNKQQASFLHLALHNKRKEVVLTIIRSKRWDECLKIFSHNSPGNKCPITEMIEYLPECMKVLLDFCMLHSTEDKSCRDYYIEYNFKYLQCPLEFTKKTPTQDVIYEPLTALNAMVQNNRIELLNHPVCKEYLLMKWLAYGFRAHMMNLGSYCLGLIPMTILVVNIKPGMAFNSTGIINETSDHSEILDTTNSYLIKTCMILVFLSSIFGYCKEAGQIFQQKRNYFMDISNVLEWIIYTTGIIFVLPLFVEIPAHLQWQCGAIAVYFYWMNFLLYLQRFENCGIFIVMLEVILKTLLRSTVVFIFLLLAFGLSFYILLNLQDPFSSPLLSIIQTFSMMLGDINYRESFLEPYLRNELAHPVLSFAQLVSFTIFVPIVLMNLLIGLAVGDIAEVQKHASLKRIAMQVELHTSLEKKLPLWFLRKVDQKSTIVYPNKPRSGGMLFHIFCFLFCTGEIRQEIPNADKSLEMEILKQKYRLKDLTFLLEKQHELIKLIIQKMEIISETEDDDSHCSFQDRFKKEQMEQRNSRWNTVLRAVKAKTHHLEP
- assayText: cell-based
- Set-up: dose or concentration left out as unconfirmed
- experimentalContext: HEK293; percentage of the control (allyl isothiocyanate) calcium count; material dissolved in DMSO at 100 micromolar; HEK cells with TRPA1; pre-incubation; read-out: TRPA1 Pre-incubation
- Protocol: The term “TRPA1 activator” as used herein refers to any component which at a concentration of 1 mM gives a calcium flux count of at least 1000 counts above the background level of calcium present in the cell according to the FLIPR method as discussed herein. The term “count” is defined as the change in fluorescence of the transfected cell lines due to the influx of calcium across the cell membrane, which reacts with the calcium sensitive dye present within the cells. […]
Structures can show the parent of a compound that is named as a salt.

# compound, assayedSystem, activation [%]
measured = [
    ("Cc1occc(=O)c1O", "TRPA1 receptor (Homo sapiens, UniProt O75762)", 102),
    ("CCCCOC(=O)CC [Butyl Propionate]", "TRPA1 receptor (Homo sapiens, UniProt O75762)", 53.4),
    ("O=COCc1ccccc1 [Benzyl Formate]", "TRPA1 receptor (Homo sapiens, UniProt O75762)", 75.3),
    ("COc1cccc(OC)c1O", "TRPA1 receptor (Homo sapiens, UniProt O75762)", 71.6),
    ("CCCCCOC(=O)c1ccco1 [Amyl 2-Furoate]", "TRPA1 receptor (Homo sapiens, UniProt O75762)", 74.1),
    ("Cc1ncsc1CCO", "TRPA1 receptor (Homo sapiens, UniProt O75762)", 72.8),
    ("CCCOC(=O)c1ccc(O)cc1 [n-Propyl-4-hydroxybenzoate]", "TRPA1 receptor (Homo sapiens, UniProt O75762)", 8.13),
    ("CCCCCC/C=C\\CO [cis-2-nonen-1-ol]", "TRPA1 receptor (Homo sapiens, UniProt O75762)", 79.2),
]

---

- assayedSystem: TRPA1 receptor (Homo sapiens, UniProt O75762)
- Construct: expressed in transfected cells; host or cells: HEK cell line
- assayText: cell-based
- experimentalContext: percentage of the control (allyl isothiocyanate) calcium count; material dissolved in DMSO at 100 micromolar; HEK cells with TRPA1; direct addition

# compound, assayedSystem, TRPA1 Direct addition, %
data = [
    ("COC(=O)CCCc1ccccc1 [Methyl 4-Phenyl butyrate]", "TRPA1 receptor (Homo sapiens, UniProt O75762)", "−0.22"),
    ("C=C(C)C1CC=C(C)C(OC(C)=O)C1 (centres unmarked) [carvyl acetate]", "TRPA1 receptor (Homo sapiens, UniProt O75762)", "−0.25"),
    ("CC1=C(CCC(C)O)C(C)(C)CCC1 (stereo not drawn) [Dihydro-beta-ionol]", "TRPA1 receptor (Homo sapiens, UniProt O75762)", "−0.33"),
    ("CC(=O)/C=C/C1=C(C)CCCC1(C)C", "TRPA1 receptor (Homo sapiens, UniProt O75762)", "−2.88"),
    ("C=CCCC(=O)/C=C/C1C(C)=CCCC1(C)C (centres unmarked)", "TRPA1 receptor (Homo sapiens, UniProt O75762)", 0.55),
    ("CCCc1ccc(O)c(OC)c1 [Dihydroeugenol]", "TRPA1 receptor (Homo sapiens, UniProt O75762)", 0.07),
    ("C=C(C)[C@@H]1CCC2=CCC[C@@H](C)[C@]2(C)C1", "TRPA1 receptor (Homo sapiens, UniProt O75762)", 0.1),
    ("C=C(OCC)C1C(C)(C)CC(=O)CC1(C)C", "TRPA1 receptor (Homo sapiens, UniProt O75762)", "−0.23"),
]
